measurement.notes: Pharmacokinetic study in monkeys
Type: in vivo
test.parameters: male, cynomolgus, cynomolgus monkey, plasma, inhaled or intranasal; monkey, 10 mg/kg intranasally; read-out: T1/2 (converted)
property.label: half-life (h)
Express it in h; write the number only.

Memo: `N#Cc1ccc(Cc2nc(C(=O)NCC(=O)N3CC(F)(F)C[C@H]3C#N)cs2)cc1` , reported half-life: 1.3

====

measurement.notes: Pharmacokinetic study in mice
Format: in vivo, C57BL/6J mice
test.parameters: male, C57BL/6J, plasma, po; mouse, p.o. 200 mg/kg
property.label: Tmax

The molecule listed as N#Cc1ccc(Cc2nc(C(=O)NCC(=O)N3CC(F)(F)C[C@H]3C#N)cs2)cc1 [BR103354] shows Tmax equal to 1 h

====

measurement.notes: Pharmacokinetic study in mice
Assay type: in vivo, C57BL/6J mice
test.parameters: male, C57BL/6J, plasma, po; mouse, p.o. 10 mg/kg; read-out: T1/2 (converted)
Protocol: Mice were administered with BR103354 either p.o. […] (2 mg/kg). […] These samples were then centrifuged at 13,000 rpm for 10 min to obtain plasma. […] Samples were analyzed on an API 4500 Qtrap LC‐MS/MS system (Applied Biosystems/MDS Sciex, Toronto, Canada) coupled with Agilent 1200 HPLC (Agilent Technologies, Santa Clara, CA). Plasma concentration–time data were analyzed by non-compartmental method using the nonlinear least-squares regression program WinNonlin (Pharsight, Mountain View, CA).
property.label: half-life (h)
Report as a plain number; the unit h is understood.

Per the records, this compound ( N#Cc1ccc(Cc2nc(C(=O)NCC(=O)N3CC(F)(F)C[C@H]3C#N)cs2)cc1 [BR103354] ) has half-life equal to 1.2

====

test.target: DPP4 (Homo sapiens)
Construct: purchased R&D Systems 9168-SE
Sequence (P27487 whole entry): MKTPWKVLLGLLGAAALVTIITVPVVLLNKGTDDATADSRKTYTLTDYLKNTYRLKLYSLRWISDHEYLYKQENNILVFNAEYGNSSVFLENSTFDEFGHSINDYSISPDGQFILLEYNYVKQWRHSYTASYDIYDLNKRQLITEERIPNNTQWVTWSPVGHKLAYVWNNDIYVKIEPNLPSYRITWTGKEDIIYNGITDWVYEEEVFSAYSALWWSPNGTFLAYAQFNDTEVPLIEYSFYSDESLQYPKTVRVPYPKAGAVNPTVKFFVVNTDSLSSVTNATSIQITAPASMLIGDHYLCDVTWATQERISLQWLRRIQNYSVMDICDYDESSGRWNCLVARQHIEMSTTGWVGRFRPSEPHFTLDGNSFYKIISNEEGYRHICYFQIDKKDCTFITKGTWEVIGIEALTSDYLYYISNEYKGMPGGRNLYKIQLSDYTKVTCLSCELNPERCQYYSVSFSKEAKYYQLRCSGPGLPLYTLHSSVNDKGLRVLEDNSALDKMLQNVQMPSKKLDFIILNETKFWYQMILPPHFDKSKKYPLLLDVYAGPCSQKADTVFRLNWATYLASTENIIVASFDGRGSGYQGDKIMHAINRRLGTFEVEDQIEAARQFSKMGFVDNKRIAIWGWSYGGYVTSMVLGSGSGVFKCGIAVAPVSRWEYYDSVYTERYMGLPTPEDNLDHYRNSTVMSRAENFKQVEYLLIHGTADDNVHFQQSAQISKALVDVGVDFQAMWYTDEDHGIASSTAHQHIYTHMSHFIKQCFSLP
measurement.notes: DPP4 activity, fluorometric assay with AMC substrate
Format: biochemical
test.parameters: fluorometric assay using AMC substrates
property.label: IC50

Reported IC50 ( `N#Cc1ccc(Cc2nc(C(=O)NCC(=O)N3CC(F)(F)C[C@H]3C#N)cs2)cc1` ) = > 100000 nM

====

test.target: hFAP (Homo sapiens, UniProt Q12884)
Construct: purchased R&D Systems 3715-SE
Sequence (Q12884 whole entry): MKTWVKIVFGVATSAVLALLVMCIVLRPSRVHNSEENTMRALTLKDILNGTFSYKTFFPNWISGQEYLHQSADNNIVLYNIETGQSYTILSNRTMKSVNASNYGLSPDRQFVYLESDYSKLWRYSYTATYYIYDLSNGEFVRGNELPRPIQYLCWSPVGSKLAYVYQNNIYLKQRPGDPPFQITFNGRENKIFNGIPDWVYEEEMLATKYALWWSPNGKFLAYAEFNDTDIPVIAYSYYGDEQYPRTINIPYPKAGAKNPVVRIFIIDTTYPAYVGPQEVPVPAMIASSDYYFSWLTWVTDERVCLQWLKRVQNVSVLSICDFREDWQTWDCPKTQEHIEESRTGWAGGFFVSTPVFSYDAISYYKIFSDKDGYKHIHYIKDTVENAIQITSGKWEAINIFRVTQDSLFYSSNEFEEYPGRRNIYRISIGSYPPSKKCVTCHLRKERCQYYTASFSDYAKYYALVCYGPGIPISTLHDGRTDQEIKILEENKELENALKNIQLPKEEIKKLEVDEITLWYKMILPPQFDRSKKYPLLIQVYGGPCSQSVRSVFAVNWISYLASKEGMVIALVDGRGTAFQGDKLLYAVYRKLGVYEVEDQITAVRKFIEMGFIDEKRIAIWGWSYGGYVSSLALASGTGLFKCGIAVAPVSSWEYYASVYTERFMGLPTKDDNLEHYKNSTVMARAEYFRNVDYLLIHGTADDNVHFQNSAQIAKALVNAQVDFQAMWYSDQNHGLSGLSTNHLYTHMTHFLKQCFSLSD
measurement.notes: FAP enzyme activity, fluorometric assay with AMC substrate
Format: biochemical
test.parameters: 40 μM Suc-Gly-Pro-Leu-Gly-Pro-AMC, 60 min at 37 °C; read-out: IC50 (nM) FAP
From the text: Recombinant human PREP (hPREP) (catalog no. 4308-SE), hDPP2/7 (catalog no. 3438-SE), hDPP9 (catalog no. 5419-SE), hFAP (catalog no. 3715-SE), and hDPP4 (catalog no. 9168-SE) proteins were from R&D Systems (Minneapolis, MN). Human FGF21 (catalog no. CRF159C) was from Cell Science (Newburyport, MA). […]
property.label: IC50 (nM)
Use nM as the unit, but write only the number.

Looking up `N#Cc1ccc(Cc2nc(C(=O)NCC(=O)N3CC(F)(F)C[C@H]3C#N)cs2)cc1` , I see its IC50 listed as 14

====

test.target: serum FAP (Mus musculus, UniProt P97321)
Construct: from tissue; host or cells: mouse serum/plasma (ob/ob and C57BL/6J mice)
Sequence (P97321 24-761 limits assumed): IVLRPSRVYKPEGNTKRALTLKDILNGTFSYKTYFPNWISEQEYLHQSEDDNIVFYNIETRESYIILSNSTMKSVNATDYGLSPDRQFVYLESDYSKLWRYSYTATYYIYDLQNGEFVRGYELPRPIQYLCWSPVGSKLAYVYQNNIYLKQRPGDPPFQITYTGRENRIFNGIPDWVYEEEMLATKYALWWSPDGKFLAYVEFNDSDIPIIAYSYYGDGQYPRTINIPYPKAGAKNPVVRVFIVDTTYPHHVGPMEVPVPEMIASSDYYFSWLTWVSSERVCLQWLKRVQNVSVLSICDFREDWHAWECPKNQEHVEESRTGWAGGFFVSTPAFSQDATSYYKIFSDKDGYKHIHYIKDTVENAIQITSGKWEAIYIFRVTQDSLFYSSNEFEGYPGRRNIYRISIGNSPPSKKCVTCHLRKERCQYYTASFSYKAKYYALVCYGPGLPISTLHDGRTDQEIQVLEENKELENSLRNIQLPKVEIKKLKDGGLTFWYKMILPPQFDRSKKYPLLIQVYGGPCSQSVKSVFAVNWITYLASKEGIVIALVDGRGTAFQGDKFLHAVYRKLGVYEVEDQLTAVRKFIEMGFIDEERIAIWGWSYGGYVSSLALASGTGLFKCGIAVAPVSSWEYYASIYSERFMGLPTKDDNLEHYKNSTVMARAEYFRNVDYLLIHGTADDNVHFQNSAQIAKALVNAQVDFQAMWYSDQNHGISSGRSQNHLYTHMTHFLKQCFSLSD
measurement.notes: IC50 on serum FAP, mice
Assay type: biochemical
test.parameters: read-out: Serum FAP IC50 (nM): Mouse
property.label: IC50 (nM)
Give just the number in nM; leave the unit off.

serum FAP (Mus musculus, UniProt P97321) IC50 of `N#Cc1ccc(Cc2nc(C(=O)NCC(=O)N3CC(F)(F)C[C@H]3C#N)cs2)cc1` is 31
